- System: MDA-MB-468 breast
- assay text: NCI-60 one-dose screen, 48 h (100 = growth as untreated, 0 = no growth, -100 = all killed)
- cond: 10 µM unless noted
- Method: Growth inhibition of the MDA-MB-468 human Breast tumor cell line is measured as a screen for anti-cancer activity. Cells are grown in 96 well plates and exposed to the test compound for 48 hours. Compounds are tested at a single concentration, which is 10^-5 M for most compounds. The reported endpoint is percent growth (GI% or GIPRCNT), where numbers from 0 - 100% represent growth inhibition, and numbers from -100% - 0 represent cell death. […]
This is part of a sample that, as a whole, favours compounds with a hit. Of some 83,000 tested, about 20% had one in any assay.
Measured growth of individual entries
Entry rule: numbers only, all in %.

Known results for molecules:
compound string	quantity	value measured
c1ccc(CN=C(NCc2ccccc2)NCc2ccccc2)cc1	growth	-14.8
c1csc(-c2cnc3nonc3n2)c1	growth	67.5
C=C1C(=O)O[C@H]2[C@H]1CC/C(COC(=O)NCc1c[nH]c3ccccc13)=C\CC[C@@]1(C)O[C@@H]21	growth	48
C[C@]12CCc3c(ccc4cc(O)ccc34)[C@@H]1CC[C@H]2O	growth	81.3

In: Answer with the recorded growth for the molecule listed here: `CC(C)(C)OC(=O)N1C(=O)c2c(c3c4ccccc4[nH]c3c3ccc4ccccc4c23)C1=O`
Out: 75.6

In: Provide growth value for the following molecule: `COc1ccc2[nH]cc(-c3nc(N)nnc3-c3cn(C)c4ncc(Br)cc34)c2c1`
Out: -8.06

###

Reported values of growth for individual entries
- Test system: MDA-MB-468 breast
- assay text: NCI-60 one-dose screen, 48 h (100 = growth as untreated, 0 = no growth, -100 = all killed)
- cond: 10 µM unless noted
The panel holds about 83,000 compounds, 20% with a hit somewhere; the sample as a whole holds those more often. Calls of active or inactive are those of the source. The calls were made as follows: active = growth percent below 10; inactive = the rest.

Before answering, review these 3 worked examples.
compound	tgt	growth
O=C(Nc1cccc(Cn2c(=O)[nH]c3ccc(Oc4ncccn4)cc3c2=O)c1)c1ccc(Cl)cc1	MDA-MB-468 breast	16.8% (inactive)
CC1C=CC(OC(=O)C(C)(O)CCC(O)(C(=O)OC2CC(O)C(C(C)C)CC2(C)O)C(C)C)(C(C)C)CC1 (stereo not given)	MDA-MB-468 breast	-69.9% [4.63 µM] (active)
CS(=O)(=O)O[C@@H]1C(=O)N(c2cc3c4ccccc4ccc3c3ccccc23)[C@H]1c1ccc(F)cn1	MDA-MB-468 breast	30.4% (inactive)

In: Quick one: give measured growth for `O=C(Cn1nnc2ccccc21)N/N=C/c1ccccc1F`
Out: 90.8% (inactive)

In: Please list growth recorded for the compound `NNC(=O)CCCCl`
Out: 96% (inactive)

In: Note growth for the compound shown: `O=C(CCCNC(=O)c1nc(-c2ccccc2)n(-c2ccccc2)n1)NO`
Out: 98.8% (inactive)

In: Give me measured growth, please, for this compound: COc1cc(/C=C2\CCCC3=C2NC(N)=NC3c2cc(OC)c(OC)c(OC)c2)cc(OC)c1OC (stereo not given)
Out: -70.9% (active)

In: Retrieve growth measured for `COC(=O)c1c2c(c(C)[n+]([O-])c1C)C(=O)C(NCc1cccc(OC)c1)=CC2=O` and print it.
Out: -21.3% (active)

In: State its growth for this compound: `CNc1nc(NC2CCCC2)nc(Sc2ccc(OC)cc2)n1`
Out: 42.5% [100 µM] (inactive)
